Measured values drawn from patent US7271161B2 for this set.

- Test system: Human A2780 cell line
- test description: MTT cytotoxicity assay, cisplatin-sensitive ovarian A2780 cells, with or without BSO
- Type: cell-based
- run conditions: +10 μM BSO (MTC), 24 hr BSO; read-out: IC50 (μM) vs. A2780 +10 μM BSO (MTC)
Class definitions on IC50: b0 = under 0.7 µM, b1 = from 0.7 µM up to 3 µM, b2 = 3 µM and over

Request: Returns: class label. Input: [NH2][Pt]([Cl])([Cl])[NH]C1CCC1 [Complex 4]
Result: b1

Request: Returns: class label. Input: [NH2][Pt]([NH2])([Cl])[Cl] [Complex 1]
Result: b2

Request: Returns: class label. Input: [NH2][Pt]([Cl])([Cl])[NH]C1CCCC1 [Complex 5]
Result: b0

Request: Returns: class label. Input: [NH2][Pt]([Cl])([Cl])[NH]C1CC1 [Complex 3]
Result: b2

Request: Returns: class label. Input: N[C@@H]1CCCC[C@H]1N.[OH][Pt+2]([OH])([Cl])[Cl] [Complex 14]
Result: b1

Request: Returns: class label. Input: [NH2][Pt]([Cl])([Cl])[NH]C1CCCCCCC1 [Complex 8]
Result: b0

Request: Returns: class label. Input: [NH2][Pt]([Cl])([Cl])[N]1CCCC1 [Complex 10]
Result: b1

Request: Returns: class label. Input: [Cl][Pt]1([Cl])([Cl])([Cl])[NH][C@@H]2CCCC[C@H]2[NH]1 (racemic) [Complex 13]
Result: b2

Request: Returns: class label. Input: [Cl][Pt]1([Cl])[NH][C@@H]2CCCC[C@H]2[NH]1 [Complex 2]
Result: b0

Request: Returns: class label. Input: [NH2][Pt]([Cl])([Cl])[NH]C1CCCCC1 [Complex 6]
Result: b0

----------
- System: Human A2780 cell line
- test description: MTT cytotoxicity assay, cisplatin-sensitive ovarian A2780 cells, with or without BSO
- Type: cell-based
- run conditions: without BSO; 2 hr platinum exposure, MTT after 5 days; read-out: IC50 (μM) vs. A2780 Control (Without BSO)
# if measured IC50 < 0.9 µM: 1.0  # else: 0.0

Request: In plain terms, does [NH2][Pt]([Cl])([Cl])[NH]C1CC1 come in under 0.9 µM for IC50?
Result: 0.0

Request: In plain terms, does N[C@@H]1CCCC[C@H]1N.[OH][Pt+2]([OH])([Cl])[Cl] come in under 0.9 µM for IC50?
Result: 0.0

Request: In plain terms, does [NH2][Pt]([Cl])([Cl])[N]1CCCC1 come in under 0.9 µM for IC50?
Result: 0.0

Request: In plain terms, does [Cl][Pt]1([Cl])([Cl])([Cl])[NH][C@@H]2CCCC[C@H]2[NH]1 (racemic) come in under 0.9 µM for IC50?
Result: 0.0

Request: In plain terms, does [NH2][Pt]([Cl])([Cl])[NH]C1CCCC1 come in under 0.9 µM for IC50?
Result: 1.0

Request: In plain terms, does [Cl][Pt]1([Cl])[NH][C@@H]2CCCC[C@H]2[NH]1 come in under 0.9 µM for IC50?
Result: 1.0

Request: In plain terms, does [NH2][Pt]([Cl])([Cl])[N]1CCC1 come in under 0.9 µM for IC50?
Result: 0.0

Request: In plain terms, does [NH2][Pt]([NH2])([Cl])[Cl] come in under 0.9 µM for IC50?
Result: 0.0

Request: In plain terms, does [NH2][Pt]([Cl])([Cl])[NH]C1CCCCC1 come in under 0.9 µM for IC50?
Result: 1.0
